Data origin: patent US8354443B2

# Tested on: recombinant AMPK proteins (α1β1γ1, α2β1γ1, α1(1-335), α1(1-394) or α2(1-394))
# Assay explanation: Scintillation Proximity Assay (AMPK activation)
# Assay type: biochemical, human
# Recorded conditions: effective concentration of activator for 50% of maximal enzyme activity; 2 hr at 30° C.; AMPK form not specified
Value kind: EC50 (µM)

Please review the following examples before continuing.
Molecule: CCN(CC)CCN1C(=O)[C@]2(C[C@@H]2c2ccc(Cl)cc2)c2ccccc21 (racemic) [Example 71]
EC50 [µM]: 3.2
//
Molecule: O=C(O)c1cccc(CN2C(=O)[C@]3(C[C@@H]3c3cccc(F)c3)c3ccccc32)c1 (racemic) [Example 10]
EC50 [µM]: 2.02
//
Molecule: COc1ccc([C@@H]2C[C@]23C(=O)N(Cc2cccc(C(=O)O)c2)c2ccccc23)cc1 (racemic) [Example 20]
EC50 [µM]: 0.9
//
Molecule: O=C(O)c1cc(CN2C(=O)[C@]3(C[C@@H]3c3ccc(Cl)cc3)c3ccccc32)ccc1Cl (racemic) [Example 6]
EC50 [µM]: 7.1
//
Molecule: CN(C)[C@H]1CCN(CCN2C(=O)[C@]3(C[C@@H]3c3ccc(Cl)cc3)c3ccccc32)C1 (mixture of isomers) [Example 76]
EC50 [µM]: 1.09

A = O=C(c1cccc(N2C(=O)[C@@]3(C[C@H]3c3ccc(Cl)cc3)c3ccccc32)c1)N1CCOCC1 (racemic) [Example 88]
B = O=C(c1cccc(CN2C(=O)[C@@]3(C[C@H]3c3ccc(Cl)cc3)c3ccccc32)c1)N1CCOCC1 (racemic) [Example 63]
C = CC(C)NC(=O)c1cccc(CN2C(=O)[C@@]3(C[C@H]3c3ccc(Cl)cc3)c3ccccc32)c1 (racemic) [Example 61]
D = O=C(O)c1cn(CCN2C(=O)[C@]3(C[C@H]3c3ccc(Cl)cc3)c3ccccc32)cn1 (racemic) [Example 82]
Provide the items ranked by increasing EC50. Please respond with the labels ordered as the question requires.
B, A, D, C
(B: 1.54 µM, A: 2.56 µM, D: 4.03 µM, C: 8.67 µM)
